Recorded Papp values for a group of compounds are listed next.
- Tested on: human MDR1 (P-gp)
- Measurement Notes: in vitro
- Condition Set: pig, LLC-PK1
Attribute Measured: Papp (×10⁻⁶ cm/s)

                                   compound  reported
0  Cc1ccccc1-c1ccc2nc(N)c(C[C@@H](C)C(=O)NCc3ccccc3)cc2c1       6.5
1  Cc1ccccc1-c1ccc2nc(N)c(CC(C)C(=O)NCc3cccnc3)cc2c1 (racemic)        16
2  Cc1ccccc1-c1ccc2nc(N)c(CC(C)C(=O)NCc3cncs3)cc2c1 (racemic)        12
